Listed below: MMEJ-attributed deletion frequency values for each entry.
- Tested on: 409B2 hiPSC (iCRISPR Cas9, FRMD7 editing)
- measurement_notes: MMEJ-attributed deletion frequency relative to solvent control (fold (ratio to mock)); higher = more MMEJ outcomes
- assay_conditions: 2000 nM
Where a name gives a salt, the structure may show the parent alone.
Please state the value as a number alone, without comment.

{"columns": ["compound", "system_under_test", "MMEJ-attributed deletion frequency"],
 "data": [
  ["CC(O)C(=O)O (stereo not drawn) [lactate] (in H2O)", "409B2 hiPSC (iCRISPR Cas9, FRMD7 editing)", 1.05],
  ["CO[C@H]1O[C@@H]2O[C@@]3(C)CC[C@H]4[C@H](C)CC[C@@H]([C@H]1C)[C@@]24OO3 [Artemether (SM-224)] (in DMSO)", "409B2 hiPSC (iCRISPR Cas9, FRMD7 editing)", 0.907],
  ["O=C(O[C@H]1CN2CCC1CC2)N1CCc2ccccc2[C@@H]1c1ccccc1 [Solifenacin succinate] (in DMSO)", "409B2 hiPSC (iCRISPR Cas9, FRMD7 editing)", 0.937],
  ["Cc1c(C(C)C)c(=O)n(-c2ccccc2)n1C [Propyphenazone (4-Isopropylantipyrine)] (in DMSO)", "409B2 hiPSC (iCRISPR Cas9, FRMD7 editing)", 0.954],
  ["Cc1ccc(NC(=O)c2ccc(CN3CC[C@H](N(C)C)C3)c(C(F)(F)F)c2)cc1Nc1nccc(-c2cncnc2)n1 [Bafetinib (INNO-406)] (in DMSO)", "409B2 hiPSC (iCRISPR Cas9, FRMD7 editing)", 1.04],
  ["CC1(C)S[C@@H]2[C@H](NC(=O)COc3ccccc3)C(=O)N2[C@H]1C(=O)O [Penicillin V potassium salt] (in DMSO)", "409B2 hiPSC (iCRISPR Cas9, FRMD7 editing)", 1.1],
  ["CCc1c2c(nc3ccc(OC(=O)N4CCC(N5CCCCC5)CC4)cc13)-c1cc3c(c(=O)n1C2)COC(=O)[C@]3(O)CC [Irinotecan HCl Trihydrate] (in DMSO)", "409B2 hiPSC (iCRISPR Cas9, FRMD7 editing)", 0.541],
  ["CNCC[C@H](Oc1cccc2ccccc12)c1cccs1 [Duloxetine HCl] (in DMSO)", "409B2 hiPSC (iCRISPR Cas9, FRMD7 editing)", 1.09]
]}

In: Which MMEJ-attributed deletion frequency reading was recorded for the compound Oc1cccc(O)c1 [Resorcinol] (in DMSO) ?
Out: 0.934

In: Repeat with C[C@]12CC[C@@H]3c4ccc(O)cc4CC[C@H]3[C@@H]1C[C@@H](O)[C@@H]2O [Estriol] (in DMSO)
Out: 0.923

In: Repeat with C[C@@H]1O[C@@H](O[C@H]2C[C@@H](O)[C@]3(CO)[C@H]4[C@H](O)C[C@]5(C)[C@@H](C6=CC(=O)OC6)CC[C@]5(O)[C@@H]4CC[C@]3(O)C2)[C@H](O)[C@H](O)[C@H]1O [Ouabain Octahydrate] (in H2O)
Out: 3.06

In: Repeat with O=C1NC(=O)[C@@H](c2cn3c4c(cccc24)CCC3)[C@@H]1c1c[nH]c2ccccc12 [Tivantinib (ARQ 197)] (in DMSO)
Out: 1.48

In: Repeat with CC(=O)O[C@@]12CO[C@@H]1C[C@@H](O)[C@@]1(C)C(=O)[C@H](O)C3=C(C)[C@@H](O)C[C@@](O)([C@@H](OC(=O)c4ccccc4)[C@H]21)C3(C)C [10-DAB (10-Deacetylbaccatin)] (in DMSO)
Out: 0.561
